measured.on: UniProt:Q9UBB5
Sequence (Q9UBB5 145-213 limits assumed): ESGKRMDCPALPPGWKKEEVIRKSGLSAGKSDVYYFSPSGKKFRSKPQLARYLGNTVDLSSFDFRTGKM
Below, each of the compounds is paired with its reported pIC50 value.
Entry type: numeric. Quantity: pIC50, the -log10 of concentration in molar units.

Record excerpt, results attached:
Enquiry: Please give the documented pIC50 of O=C1c2c(O)ccc(O)c2C(=O)c2c(NCCNCCO)ccc(NCCNCCO)c21 [Mitoxantrone]
Return: 7.03

Enquiry: Annotate the compound O=C(O)C1=CC(=C(c2ccc(O)c(C(=O)O)c2)c2ccc(O)c(C(=O)O)c2)C=CC1=O [Aurintricarboxylic acid] with its measured pIC50.
Return: 8.57

---
Enquiry: Give the reported pIC50 for this compound. CC(=O)[C@]1(O)Cc2c(O)c3c(c(O)c2[C@@H](O[C@H]2C[C@H](N)[C@H](O)[C@H](C)O2)C1)C(=O)c1ccccc1C3=O [Idarubicin]
Return: 6.71
